Measured selectivity ratio, listed per entry.
assay: Toxicity in zebrafish larvae (MTC / IC50); type: in vivo; settings: zebrafish, zebrafish larvae, zebrafish IC50 / MIC S. aureus Newman; read-out: Selectivity Index S. aureus
Lab note: jot down the number only; don't add units.

# example entries with known answers
>  <COMPOUND>
CC1=CC(C)C2C(C=CC3C(C)C=CC=CC(C)OC(=O)CC(=O)CC(=O)C32)C1 (stereo not drawn)

>  <selectivity ratio>
13.4

$$$$
>  <COMPOUND>
CC1=CC(C)C2C(C=CC3C(C)C=CC=CC(C)OC(=O)C(C)C(=O)CC(=O)C32)C1 (stereo not drawn) [dehalogenil-2′Epi]

>  <selectivity ratio>
78.9

$$$$

selectivity ratio lookup needed for CC1C=CC=CC(C)C2C=CC3CC4(C)OC4C(C)C3C2C(=O)CC(=O)C(C)C(=O)O1 (stereo not drawn) , thanks.
1.31

====

assay: Plasma stability; format: in vitro ADME; settings: mouse, plasma; read-out: plasma stability t1/2 (converted)
ASSAY_ENDPOINT: half-life (h)
// return numeric value only (unit: h, not printed)

half-life lookup needed for CC1=CC(C)C2C(C=CC3C(C)C=CC=CC(C)OC(=O)C(C)C(=O)CC(=O)C32)C1 (stereo not shown) , thanks.
1.5

====

test system: drug-sensitive P. falciparum 3D7; assay: Drug sensitivity assay, asexual stages (HRP2 ELISA, 72 h); format: cell-based; settings: Plasmodium falciparum, mean ± SD, read-out: chloroquine IC50
ASSAY_ENDPOINT: pIC50
Lab note: report pIC50 as minus log10 of the concentration in molar units, number only.

pIC50 lookup needed for CCN(CC)CCCC(C)Nc1ccnc2cc(Cl)ccc12 (stereo not shown) , thanks.
8.13

====

tested on: E. faecium DSM-17050 (vancomycin-resistant, VRE); test: MIC testing (broth microdilution, EUCAST); type: cell-based
Measured MIC VRE, listed per entry.
// return numeric value only (unit: µg/mL, not printed)

# example entries with known answers
>  <COMPOUND>
CC1=CC(C)C2C(C=CC3C(C)C=CC=CC(C)OC(=O)C(C)(C)C(=O)C(Cl)=C(O)C32)C1 (stereo not drawn) [ChB1-2′Me]

>  <TARGET_SYSTEM>
E. faecium DSM-17050 (vancomycin-resistant, VRE)

>  <ASSAY_ENDPOINT>
MIC VRE

>  <READING_UNIT>
µg/mL

>  <RESULT>
0.4

$$$$
>  <COMPOUND>
CC1=CC(C)C2C(C=CC3C(C)C=CC=CC(C)OC(=O)CC(=O)C(Cl)=C(O)C32)C1 (stereo not drawn) [ChB1-2′DM, 2′Demethylchlorotonil]

>  <TARGET_SYSTEM>
E. faecium DSM-17050 (vancomycin-resistant, VRE)

>  <ASSAY_ENDPOINT>
MIC VRE

>  <READING_UNIT>
µg/mL

>  <RESULT>
0.4

$$$$

Now consider the entry below.
MIC VRE lookup needed for CC1C=CC=CC(C)C2C=CC3CC4(C)OC4C(C)C3C2C(=O)CC(=O)C(C)C(=O)O1 (stereo not drawn) [Dehalogenil-Epo2] , thanks.
0.4

Data provenance is patent US20260335277A1.
